Tested on: 22Rv1
Assay: Cell viability, CellTiter-Glo assay, 22Rv1
Assay type: cell-based
Conditions: 22Rv1, cell viability
Protocol: (§1) The viability of screened cancer cells was recorded using a luminescence-based CellTiter-Glo® assay for the ATP quantification. […] as §1 a. […] In addition, we also evaluated the molecules' antiproliferative potency against a panel of twelve different cancer phenotypes. […]
experimental_readout: pEC50
Scale for pEC50: -log10 of concentration given in mol/L; no unit attached.

Task: What does the data say about its pEC50? Entry: CN(C(=O)CCl)c1ccccc1C(=O)c1ccccc1
Result: 6.82

====

System: 22Rv1
Experiment: Cell viability, CellTiter-Glo assay, 22Rv1
Format: cell-based
Settings: Homo sapiens, 22Rv1, 22Rv1, cell viability
Lab note: compare EC50 with 0.4 µM, writing 1 if less and 0 if equal or more.

Below are worked cases with known answers.
C=CCN(C(=O)COc1ccccc1)c1ccccc1C(=O)c1ccccc1 : 0
O=C(c1ccccc1)c1ccccc1N(Cc1ccccc1)C(=O)CCl : 0

Task: Lab log: compare recorded EC50 with 0.4 µM; is it strictly lower for CC(C)(C)c1ccc(OCC(=O)N(Cc2ccccc2)c2ccccc2C(=O)c2ccccc2)cc1 ?
Result: 0

Task: Is the reported EC50 for CN(C(=O)CBr)c1ccccc1C(=O)c1ccccc1 strictly below 0.4 µM?
Result: 1

Task: Determine whether this compound shows EC50 lower than 0.4 µM (ties excluded): O=C(c1ccccc1)c1ccccc1N(Cc1ccccc1)C(=O)CBr
Result: 0

Task: # TODO verify EC50 < 0.4 µM strictly for this compound: C#CCN(C(=O)CBr)c1ccccc1C(=O)c1ccccc1
Result: 1

Task: For this compound, is EC50 lower than 0.4 µM? C#CCN(C(=O)COc1ccc(Br)cc1)c1ccccc1C(=O)c1ccccc1
Result: 0

Task: State whether 0.4 µM exceeds EC50 recorded for C#CCN(C(=O)CCl)c1ccccc1C(=O)c1ccccc1 .
Result: 0

Task: Here's an entry: C=CCN(C(=O)COc1ccc(C(C)(C)C)cc1)c1ccccc1C(=O)c1ccccc1 . Is its EC50 below 0.4 µM?
Result: 0

====

Tested on: Huh-7 cells
Assay: Cell viability, luminescence-based CellTiter-Glo assay, Huh-7 cells
Settings: Homo sapiens, Huh-7, Huh-7 cells, cell viability; read-out: EC50 Huh-7
Each entry below carries its recorded EC50.
Expressed in µM, but write only the number.

C=CS(=O)(=O)N(C)c1ccccc1C(=O)c1ccc(-c2ccccc2)cc1 : 8.22

Task: Field request: EC50 | item: C#CCOC(=O)Nc1ccc(N(C)C(=O)CBr)c(C(=O)c2ccccc2)c1
Result: 11.7

Task: Which EC50 value is on record for CN(C(=O)CCl)c1ccccc1C(=O)c1ccc(-c2ccc(C=O)cc2)cc1 ?
Result: 0.117

Task: Form field: reported EC50 of CN(C(=O)CCl)c1ccccc1C(=O)c1ccc(-c2ccccc2)cc1
Result: 0.002

====

System: A375
Experiment: Cell viability, CellTiter-Glo assay, A375
Type: cell-based
Conditions: Homo sapiens, A-375
experimental_readout: pEC50
// pEC50 here means minus log10 of the molar concentration (mol/L)

Task: Given CN(C(=O)CCl)c1ccccc1C(=O)c1ccccc1 , state its recorded pEC50.
Result: 6.45

====

Readings of EC50 for the listed molecules
System: U2OS
Test: Cell viability, CellTiter-Glo assay, U2OS
Type: cell-based
Conditions: Homo sapiens

C#CCN(C(=O)COc1ccccc1)c1ccccc1C(=O)c1ccccc1 : > 20 µM
CN(C(=O)COc1ccc(F)cc1)c1ccccc1C(=O)c1ccccc1 : > 20 µM
CC(C)N(C(=O)CCl)c1ccccc1C(=O)c1ccccc1 : > 20 µM

Task: Reported EC50, molecule CC(C)(C)c1ccc(OCC(=O)N(Cc2ccccc2)c2ccccc2C(=O)c2ccccc2)cc1 : ____
Result: > 20 µM

Task: Reported EC50 for CN(C(=O)CBr)c1ccccc1C(=O)c1ccccc1 : what is it?
Result: 0.133 µM

Task: For C=CCN(C(=O)CBr)c1ccccc1C(=O)c1ccccc1 , what is its reported EC50?
Result: 0.03 µM

Task: # get_value(readout='EC50', item= C#CCN(C(=O)COc1ccc(Br)cc1)c1ccccc1C(=O)c1ccccc1 )
Result: > 20 µM

Task: Give its EC50 value. Item: O=C(c1ccccc1)c1ccccc1N(Cc1ccccc1)C(=O)CBr
Result: 0.19 µM

Task: What measured EC50 goes with C=CCN(C(=O)COc1ccc(C(C)(C)C)cc1)c1ccccc1C(=O)c1ccccc1 ?
Result: > 100 µM

====

Recorded pEC50 for the following molecules
Tested on: Huh-7 cells
Test: Cell viability, luminescence-based CellTiter-Glo assay, Huh-7 cells
Conditions: Homo sapiens, Huh-7, Huh-7 cells, cell viability; read-out: EC50 Huh-7
pEC50: −log10 of the molar value.

Consider the worked cases shown below.
C#CCN(C(=O)CCl)c1ccccc1C(=O)c1ccc(-c2ccccc2)cc1 : < 6.86
C#CCN(C(=O)CBr)c1ccccc1C(=O)c1ccc(-c2ccccc2)cc1 : > 7.00
C#CCN(C(=O)COc1c(F)c(F)c(F)c(F)c1F)c1ccccc1C(=O)c1ccccc1 : < 4.70

In the following, a different molecule is considered.
Task: // returns reported pEC50 for input CN(C(=O)CCl)c1ccc([N+](=O)[O-])cc1C(=O)c1ccccc1
Result: < 4.70

====

Form field: EC50 (one value per entry).
System: Huh-7 cells
Experiment: Cell viability, luminescence-based CellTiter-Glo assay, Huh-7 cells
Conditions: Homo sapiens, Huh-7, Huh-7 cells, cell viability; read-out: EC50 Huh-7

C#CCN(C(=O)COc1ccccc1)c1ccccc1C(=O)c1ccccc1 [IITK3029] : > 20 µM
C#CCN(C(=O)COc1ccc(F)cc1)c1ccccc1C(=O)c1ccccc1 [IITK3030] : > 100 µM

Task: Param item = CC(C)(C)c1ccc(OCC(=O)N(Cc2ccccc2)c2ccccc2C(=O)c2ccccc2)cc1 [IITK3038] ; retrieve measured EC50.
Result: > 100 µM

Task: Fill blank: measured EC50 of the compound O=C(c1ccccc1)c1ccccc1N(Cc1ccccc1)C(=O)COc1ccc(F)cc1 [IITK3037] is ____.
Result: > 20 µM
